Provenance of the data: PubChem BioAssay (NCI)

Tested on: HT29 colon
Assay: NCI-60 one-dose screen, 48 h (100 = growth as untreated, 0 = no growth, -100 = all killed)
Settings: 10 µM unless noted
This is part of a sample that, as a whole, favours compounds with a hit. Of some 83,000 tested, about 20% had one in any assay. The source made the active and inactive calls. Rule for the calls: active = growth percent below 10; inactive = the rest.
Property: growth; scope: individual compounds

Some solved entries appear below for comparison.
(Q) May I ask what growth has been recorded for CCc1ccc(Nc2cc(C)c3ccc(O)cc3n2)cc1 ?
(A) 19.6% (inactive)

(Q) C#CC[C@@H]1C[C@]2(C)[C@H]3CC=C4[C@H]5CC(C)(C)CC[C@]5(C(=O)NCCCCN)CC[C@@]4(C)[C@]3(C)CC[C@H]2C(C)(C)[C@H]1OC(C)=O , same question.
(A) 5.83% (active)

(Q) Cc1cc(C)c2c(n1)sc1c(Nc3ccc(Cl)cc3Cl)ncnc12 , same question.
(A) 38.9% (inactive)

New cases:
(Q) May I ask what growth has been recorded for COc1ccc(Sc2[nH]c(C=O)c3ccccc23)cc1 ?
(A) 19.4% (inactive)

(Q) O=C1OC(c2ccc(-c3ccccc3)cc2)=C/C1=C/c1c(Cl)cccc1Cl , same question.
(A) 101% (inactive)

(Q) C#CC[C@@H]1C[C@]2(C)[C@H]3CC[C@@H]4[C@H]5C(C(=C)C)CC[C@]5(C(=O)NCCN(CCN)CCN)CC[C@@]4(C)[C@]3(C)CC[C@H]2C(C)(C)[C@H]1OC(C)=O (some centres undefined) , same question.
(A) 46.8% (inactive)

(Q) Cc1ccc(O)c(Cc2ccccc2)c1 , same question.
(A) 97.2% (inactive)

(Q) CC[C@H](Nc1nc(N)nc(N)c1Cl)c1nc2cccc(NCc3ccc(C(=O)NO)cc3)c2c(=O)n1-c1ccccc1 , same question.
(A) 6.69% (active)

(Q) CCc1ccc(Nc2ncnc3c2cnn3-c2cccc(Br)c2)cc1 , same question.
(A) 108% (inactive)

(Q) Nc1nc(N)c2c(n1)NC(c1sc(Cl)nc1Cl)CC(c1ccccc1)=N2 (centres undefined) , same question.
(A) 12.6% (inactive)

(Q) O=C(Nc1ccc2[nH]c3ccccc3c2c1)c1ccccc1Cl , same question.
(A) 1.78% (active)

(Q) COc1cc(C2Nc3ccccc3S2)cc(CN2CCOCC2)c1O (centres undefined) , same question.
(A) 93.4% (inactive)

(Q) Cc1nc2ccc(Nc3nc(N4CCOCC4)nc(N4CCN(C)CC4)n3)cc2n1Cc1ccccc1 , same question.
(A) 53% (inactive)

(Q) Cc1ccc(NC(=O)Cn2nncc2CN2C(=O)CSC2=O)cc1C , same question.
(A) 105% (inactive)

(Q) Nc1nonc1-c1nc2ccccc2n1Cc1ccc(F)cc1 , same question.
(A) 17.3% (inactive)

(Q) C=CCn1c(SCC(=O)Nc2ccc(C(=O)/C=C/c3ccc(Cl)cc3)cc2)nnc1-c1ccc(Cl)cc1 , same question.
(A) 92.8% (inactive)

###

Tested on: UACC-257 melanoma
Test: NCI-60 one-dose screen, 48 h
Settings: 10 µM unless noted
The panel holds about 83,000 compounds, 20% with a hit somewhere; the sample as a whole holds those more often. Calls of active or inactive are those of the source. How the source made its calls: active means growth percent below 10; inactive means the rest.
Outcome field: choose from Yes (active), No (inactive)

(Q) What outcome does the record of this test show for Cn1c(=O)c2[nH]c(Cc3ccc4c(c3)OCO4)nc2n(C)c1=O ?
(A) No

(Q) CN(CCO)c1ccc(N2Cc3ccccc3OC3=C2C(=O)c2c(O)ccc(O)c2C3=O)cn1 , same question.
(A) Yes

(Q) COc1cc2c(cc1OC)C(=O)OC2 , same question.
(A) No

New cases:
(Q) What outcome does the record of this test show for CCC(=O)NC(O)C(Cl)(Cl)C(C)Cl (stereo unspecified) ?
(A) No

(Q) O=[N+]([O-])c1ccccc1CN1CCCCC1 , same question.
(A) No

(Q) C[C@]12CCc3nc(Nc4ccc(O)cc4)sc3C1=CC[C@@H]1[C@@H]2CC[C@]2(C)/C(=N/NC(N)=S)CC[C@@H]12 , same question.
(A) Yes
